Attribution: ChEMBL document CHEMBL3112574

- Measurement description: AUC (0 to 24 hrs) in mouse at 20 mg/kg, po
- Type: ADME, organism-based
- Set-up: time < 24 hr, dose 20 mg/kg, route oral
- Test parameters: plasma
Measured property: AUC(0-t) at 24 h
Mention the unit after the number when you answer.

*Q* Could you tell me which AUC(0-t) at 24 h is on file for COCCOc1ccccc1N1CCN(C(=O)C2(Oc3ccc(C(F)(F)F)cc3)CCCN(C(=O)c3cnccc3C(F)(F)F)C2)CC1.Cl (single isomer, unassigned) ?
*A* 1.1 µM·h

----------
- Tested system: Cytochrome P450 2C9 (Homo sapiens, UniProt P11712)
- Sequence (P11712 whole entry): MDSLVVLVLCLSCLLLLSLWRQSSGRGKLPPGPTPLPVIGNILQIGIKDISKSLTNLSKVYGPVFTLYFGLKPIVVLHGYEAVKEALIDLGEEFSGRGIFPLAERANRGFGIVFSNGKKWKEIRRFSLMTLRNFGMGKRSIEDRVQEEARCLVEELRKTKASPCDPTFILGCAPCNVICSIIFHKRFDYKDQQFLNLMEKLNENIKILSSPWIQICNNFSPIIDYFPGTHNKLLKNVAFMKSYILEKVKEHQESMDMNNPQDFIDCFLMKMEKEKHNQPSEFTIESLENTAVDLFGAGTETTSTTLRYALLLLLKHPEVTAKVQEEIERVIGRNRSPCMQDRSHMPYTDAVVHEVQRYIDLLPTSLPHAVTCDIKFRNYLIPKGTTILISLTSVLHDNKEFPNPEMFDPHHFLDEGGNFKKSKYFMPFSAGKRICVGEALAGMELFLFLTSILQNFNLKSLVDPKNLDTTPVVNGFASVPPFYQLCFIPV
- Measurement description: Inhibition of CYP2C9 (unknown origin) compound preincubated with substrate
- Assay type: ADME
pIC50: −log10 of the molar value.
Measured property: pIC50

*Q* Could you tell me which pIC50 is on file for COCCOc1ccccc1N1CCN(C(=O)C2(Oc3ccc(C(F)(F)F)cc3)CCCN(C(=O)c3cnccc3C(F)(F)F)C2)CC1.Cl (single isomer, unassigned) ?
*A* < 4.52
